Hi, quick share: literature Ki data for 5-hydroxytryptamine receptor 1A (Rattus norvegicus), several sources combined.
- Study System: 5-hydroxytryptamine receptor 1A (Rattus norvegicus)
- Sequence (P19327 whole entry): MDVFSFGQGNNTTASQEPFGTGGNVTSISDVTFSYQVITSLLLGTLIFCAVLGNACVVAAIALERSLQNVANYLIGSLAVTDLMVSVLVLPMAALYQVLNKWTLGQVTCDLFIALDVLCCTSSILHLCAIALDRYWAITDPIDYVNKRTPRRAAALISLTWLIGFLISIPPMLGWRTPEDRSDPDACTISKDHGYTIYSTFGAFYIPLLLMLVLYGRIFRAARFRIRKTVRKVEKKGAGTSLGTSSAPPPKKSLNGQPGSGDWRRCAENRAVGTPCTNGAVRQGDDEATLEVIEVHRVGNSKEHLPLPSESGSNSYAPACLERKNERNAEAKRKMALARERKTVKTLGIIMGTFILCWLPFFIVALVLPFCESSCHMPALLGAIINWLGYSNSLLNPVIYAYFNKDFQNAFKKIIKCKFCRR
The response must be a number in nM with no trailing unit.

Check out these entries, answers already filled in.
Compound: O=c1ccc(OCCCN2CCC(c3noc4cc(F)ccc34)CC2)nn1-c1ccc(Cl)cc1
Numeric Result: 89
//
Compound: CC(C)C(=O)Nc1cccc(N2CCN(CCCCN3CC(=O)N4CCCCC4C3=O)CC2)c1.Cl (stereo not given)
Numeric Result: 169
//
Compound: O=S(=O)(c1ccc(C(F)(F)F)cc1)N1CCC(CN2CCC(c3noc4cc(F)ccc34)CC2)CC1
Numeric Result: 21.9
//
Compound: CN1CCc2ccc3c4c2[C@H]1Cc1cccc(c1-4)[C@@H]3N
Numeric Result: 360

Documented Ki of Cl.O=S(=O)(c1cnc2ccccc2c1)N1CCC(CCN2CCN(c3ccc(Cl)cc3)CC2)CC1 : 8300

----------
Hi, quick share: literature Ki data for 5-hydroxytryptamine receptor 1A (Rattus norvegicus, UniProt P19327), several sources combined.
- Study System: 5-hydroxytryptamine receptor 1A (Rattus norvegicus, UniProt P19327)
- Sequence (P19327 whole entry): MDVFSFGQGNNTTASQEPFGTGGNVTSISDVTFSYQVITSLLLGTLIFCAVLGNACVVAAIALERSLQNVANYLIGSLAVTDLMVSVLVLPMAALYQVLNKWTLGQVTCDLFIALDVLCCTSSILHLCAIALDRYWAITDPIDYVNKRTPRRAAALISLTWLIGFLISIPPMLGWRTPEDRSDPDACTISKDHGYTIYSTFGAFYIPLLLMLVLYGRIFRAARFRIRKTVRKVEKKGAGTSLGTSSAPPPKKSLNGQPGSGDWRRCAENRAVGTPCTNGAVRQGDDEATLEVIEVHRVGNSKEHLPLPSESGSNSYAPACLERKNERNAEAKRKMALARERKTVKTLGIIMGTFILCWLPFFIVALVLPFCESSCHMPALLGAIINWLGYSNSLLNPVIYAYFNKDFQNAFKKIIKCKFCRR
The response must be a number in nM with no trailing unit.

Documented Ki of COc1ccccc1N1CCN(CCCCC(=O)c2ccc(O)cc2)CC1 : 20

Documented Ki of COc1ccccc1N1CCN(Cc2ccc(CN(C)S(C)(=O)=O)n2C)CC1.O=C(O)CCC(=O)O : 11

Documented Ki of O=c1[nH]c2[nH]c(-c3ccc(Cl)cc3)cc2c(=O)n1CCN1CCN(c2ccccc2Cl)CC1 : 1510

Documented Ki of O=C1C2C3C=CC(C3)C2C(=O)N1OCCN1CCN(c2ncccn2)CC1 (stereo not given) : 384

Documented Ki of COc1ccccc1N1CCN(CCCCCN2Cc3nc4ccccc4cc3C2=O)CC1 : 20
